Hey, just so you know, these numbers are from patent US7998940B2.

system: rabbit vWF A1 domain (SEQ ID NO 6); experiment: 3-point dot blot screen, rabbit vWF A1 domain; type: binding; settings: rRfY aptamers; 100 nM rabbit vWF A1 domain; ratio of fraction bound with target to without
Sequence (as listed by the source): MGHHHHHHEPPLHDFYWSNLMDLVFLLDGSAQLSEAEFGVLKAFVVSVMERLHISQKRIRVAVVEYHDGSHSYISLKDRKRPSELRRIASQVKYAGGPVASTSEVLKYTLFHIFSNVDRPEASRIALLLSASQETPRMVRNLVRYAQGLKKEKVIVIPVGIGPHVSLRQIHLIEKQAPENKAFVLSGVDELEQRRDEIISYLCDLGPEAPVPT
Oligonucleotides are written 5' to 3', each unit as a sugar letter and its base; * is a phosphorothioate linkage, no mark a phosphodiester; rarer units and linkages stand in square brackets, end groups in braces. Plain capitals give the bases only. r = 2'-OH (RNA); f = 2'-fluoro
Kindly state Screen- Rabbit/No Protein for each of the entries shown.

Item AMX198.C6: rRfY aptamer clone (nucleic acid) rGrGrArGfCrGfCrAfCfUfCrArGfCfCrAfCrGrGfUrGrGfUfCrArGfUfCrArGfUrGrAfUrAfUrGrAfUfUrArArGfUfUfCrArGfCfUrGfUrGrGfCfUrGfUfUfUfCrGrAfCfCfUfCfUfCfUrGfCfUrArGfC has what recorded Screen- Rabbit/No Protein? 4.62

Look at this molecule and give its reported Screen- Rabbit/No Protein. AMX201.H3: rRfY aptamer clone (nucleic acid) rGrGrArGfCrGfCrAfCfUfCrArGfCfCrAfCfUrArAfCrGrGfUfUrGrAfUfCfUfCrArGrGrAfCfUrArArAfUrArGfUfCrArAfCrArArGrGrAfUrGfCrGfUfUfUfCrGrAfCfCfUfCfUfCfUrGfCfUrArGfC 1.89

I would be grateful if you could share the reported Screen- Rabbit/No Protein for AMX201.D3: rRfY aptamer clone (nucleic acid) rGrGrArGfCrGfCrAfCfUfCrArGfCfCrAfCrGfCfCfCrAfCrGfUfCrArArAfUfUrAfUrArGfUfCfUrAfCfUfUfUrGrAfUrGfUrGfCfCfCrGfUrGrGfUfUfUfCrGrAfCfCfUfCfUfCfUrGfCfUrArGfC . 1.52
